The reader will find pIC50 measurements below, all made with Tie-2 (Homo sapiens, UniProt Q02763).
Sequence (Q02763 23-1124): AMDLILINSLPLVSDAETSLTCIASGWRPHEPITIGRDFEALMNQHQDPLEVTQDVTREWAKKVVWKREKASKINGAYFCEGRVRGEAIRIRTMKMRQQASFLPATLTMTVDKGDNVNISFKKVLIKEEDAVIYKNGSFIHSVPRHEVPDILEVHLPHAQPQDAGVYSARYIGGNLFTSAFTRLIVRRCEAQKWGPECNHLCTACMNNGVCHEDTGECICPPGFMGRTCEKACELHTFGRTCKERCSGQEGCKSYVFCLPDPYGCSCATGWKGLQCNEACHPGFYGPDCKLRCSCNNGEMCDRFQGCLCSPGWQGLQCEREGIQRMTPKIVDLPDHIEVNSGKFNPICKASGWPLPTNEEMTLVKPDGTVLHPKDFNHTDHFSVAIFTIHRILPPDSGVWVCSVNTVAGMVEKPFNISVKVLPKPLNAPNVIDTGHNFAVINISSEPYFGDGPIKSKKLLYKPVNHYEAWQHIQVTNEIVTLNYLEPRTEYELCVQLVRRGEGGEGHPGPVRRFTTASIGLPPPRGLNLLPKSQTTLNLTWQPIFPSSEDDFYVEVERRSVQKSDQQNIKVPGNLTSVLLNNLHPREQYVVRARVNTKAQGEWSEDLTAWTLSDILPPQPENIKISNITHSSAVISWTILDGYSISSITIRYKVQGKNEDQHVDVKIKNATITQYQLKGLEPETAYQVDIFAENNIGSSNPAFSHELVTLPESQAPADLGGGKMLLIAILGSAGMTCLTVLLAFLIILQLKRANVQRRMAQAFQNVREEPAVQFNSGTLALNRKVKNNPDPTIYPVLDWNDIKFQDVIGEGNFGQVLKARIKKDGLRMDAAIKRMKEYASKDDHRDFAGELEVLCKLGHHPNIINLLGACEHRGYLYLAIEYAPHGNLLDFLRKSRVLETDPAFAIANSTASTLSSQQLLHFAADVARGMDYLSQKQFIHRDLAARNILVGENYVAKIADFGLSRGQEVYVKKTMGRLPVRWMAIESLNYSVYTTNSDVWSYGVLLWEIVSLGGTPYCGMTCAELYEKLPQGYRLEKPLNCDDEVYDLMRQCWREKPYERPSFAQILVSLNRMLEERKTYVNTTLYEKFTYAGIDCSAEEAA
pIC50: −log10 of the molar value.

Consider the reported pIC50 for these compounds:
[[record]]
compound = "Nc1nccc(COc2cccnc2N2CCN(C(=O)N3CCCc4ccccc43)CC2)n1 [Example 219]"
reportedresult = "≤ 5.00"

[[record]]
compound = "COc1cccc(NC(=O)N2CCN(c3nsnc3OCc3ccnc(N)n3)CC2)c1 [Example 259]"
reportedresult = "6.00 to 7.30"

[[record]]
compound = "O=C(Nc1cccc(C(F)(F)F)c1)NC1CCN(c2nccnc2OCc2ccncc2)C1 (stereo not shown) [Example 66]"
reportedresult = "6.00 to 7.30"

[[record]]
compound = "Nc1nccc(COc2ccccc2N2CCN(C(=O)Nc3cc(Cl)cc(Cl)c3)CC2)n1 [Example 271]"
reportedresult = "> 7.30"

[[record]]
compound = "CN1CCN(CC(=O)Nc2cc(COc3cccnc3N3CCN(C(=O)Nc4cccc(C(F)(F)F)c4)CC3)ccn2)CC1 [Example 214]"
reportedresult = "> 7.30"

[[record]]
compound = "O=C(Nc1cc(COc2nsnc2N2CCN(C(=O)Nc3cc(C(F)(F)F)cc(C(F)(F)F)c3)CC2)ccn1)c1ccccc1 [Example 125]"
reportedresult = "5.00 to 6.00"

[[record]]
compound = "Nc1nccc(COc2nsnc2N2CCN(C(=O)Nc3cc(Cl)cc(Cl)c3)CC2)n1 [Example 223]"
reportedresult = "6.00 to 7.30"

[[record]]
compound = "O=C(Nc1cc(C(F)(F)F)cc(C(F)(F)F)c1)N1CCN(c2nccnc2OCc2ccnc(Cl)c2)CC1 [Example 84]"
reportedresult = "6.00 to 7.30"

[[record]]
compound = "C[C@@H]1CN(c2nsnc2OCc2ccncc2)CCN1C(=O)Nc1cccc(C(F)(F)F)c1 [Example 53]"
reportedresult = "6.00 to 7.30"

[[record]]
compound = "Nc1nccc(COc2cccnc2N2CCN(C(=O)Nc3cc(C(F)(F)F)ccc3Cl)CC2)n1 [Example 192]"
reportedresult = "> 7.30"


Exam item: Look at this compound and give its reported pIC50. O=C(Nc1cc(C(F)(F)F)cc(C(F)(F)F)c1)N1CCN(c2nccnc2OCc2ccncc2)CC1 [Example 38]
Marked response: > 7.30

Exam item: How about this compound: CCc1cc(CC)cc(NC(=O)N2CCN(c3nsnc3OCc3ccnc(N)n3)CC2)c1 [Example 242]
Marked response: > 7.30

Exam item: How about this compound: CCc1ccc(F)c(NC(=O)N2CCN(c3ncccc3OCc3ccnc(NC(=O)CN4CCN(C)CC4)c3)CC2)c1 [Example 199]
Marked response: > 7.30

Exam item: How about this compound: O=C(Nc1cc(COc2nsnc2N2CCN(C(=O)Nc3cc(C(F)(F)F)cc(C(F)(F)F)c3)CC2)ccn1)OCCN1CCCC1 [Example 140]
Marked response: > 7.30

Exam item: How about this compound: O=C(Nc1ccc(Cl)cc1)N1CCN(c2ncccc2OCc2ccncc2)CC1 [Example 103]
Marked response: ≤ 5.00

Exam item: How about this compound: CCN1CCC(OC(=O)Nc2cc(COc3nsnc3N3CCN(C(=O)Nc4cc(C(F)(F)F)cc(C(F)(F)F)c4)CC3)ccn2)CC1 [Example 157]
Marked response: > 7.30

Exam item: How about this compound: Nc1nccc(COc2cccnc2N2CCN(C(=O)Nc3cc(F)cc(C(F)(F)F)c3)CC2)n1 [Example 196]
Marked response: > 7.30

Exam item: How about this compound: Nc1cc(COc2nsnc2N2CCN(C(=O)Nc3cc(C(F)(F)F)cc(C(F)(F)F)c3)CC2)ccn1 [Example 99]
Marked response: > 7.30

Exam item: How about this compound: Nc1nccc(COc2ccccc2N2CCN(C(=O)Nc3ccccc3)CC2)n1 [Example 270]
Marked response: 5.00 to 6.00

Exam item: How about this compound: O=C(O)c1cc(COc2nsnc2N2CCN(C(=O)Nc3cc(C(F)(F)F)cc(C(F)(F)F)c3)CC2)ccn1 [Example 139]
Marked response: ≤ 5.00

Exam item: How about this compound: O=C(Nc1cc(C(F)(F)F)cc(C(F)(F)F)c1)N1CCN(c2nsnc2OCc2ccnc(Cl)c2)CC1 [Example 83]
Marked response: 5.00 to 6.00

Exam item: How about this compound: Nc1nccc(COc2cccnc2N2CCN(C(=O)Nc3cccc(Cl)c3)CC2)n1 [Example 183]
Marked response: 6.00 to 7.30

Exam item: How about this compound: CCC(=O)N1CCN(c2ncccc2OCc2ccnc(N)n2)CC1 [Example 208]
Marked response: ≤ 5.00

Exam item: How about this compound: O=C(Nc1cccc(C(F)(F)F)c1)N1CCN(c2nccnc2OCc2ccncc2)CC1 [Example 39]
Marked response: > 7.30

Exam item: How about this compound: CC1CN(c2nccnc2OCc2ccncc2)C(C)CN1C(=O)Nc1cc(C(F)(F)F)cc(C(F)(F)F)c1 (stereo not shown) [Example 78]
Marked response: > 7.30

Exam item: How about this compound: O=C(Nc1cc(C(F)(F)F)cc(C(F)(F)F)c1)N1CCN(c2ccccc2OCc2ccncc2)CC1 [Example 72]
Marked response: > 7.30

Exam item: How about this compound: O=C(Nc1cccc(C(F)(F)F)c1)N1CCN(c2nsnc2OCc2ccncc2)CC1 [Example 9]
Marked response: 6.00 to 7.30

Exam item: How about this compound: O=C(Nc1cccc(C(F)(F)F)c1)NC1CCN(c2nsnc2OCc2ccncc2)C1 (stereo not shown) [Example 49]
Marked response: 5.00 to 6.00

Exam item: How about this compound: CC(C)(C)OC(=O)Nc1cc(COc2nsnc2N2CCN(C(=O)Nc3cc(C(F)(F)F)cc(C(F)(F)F)c3)CC2)ccn1 [Example 100]
Marked response: > 7.30

Exam item: How about this compound: Nc1nccc(COc2ccccc2N2CCN(C(=O)Nc3cc(C(F)(F)F)cc(C(F)(F)F)c3)CC2)n1 [Example 255]
Marked response: > 7.30

Exam item: How about this compound: CCc1cccc(NC(=O)N2CCN(c3nsnc3OCc3ccnc(NC(=O)CN4CCN(C)CC4)c3)CC2)c1 [Example 172]
Marked response: > 7.30
